- STUDY SYSTEM: mutant CFTR (Homo sapiens, UniProt P13569, DEL508-508)
- TEST NAME: Fluorescence (HS-YFP) assay for CFTR activity, corrector assay
- TEST CONTEXT: CFBE41o- and FRT cells with stable expression of mutant CFTR, 24 h compound treatment
EC50 values, listed per item
MEASUREMENT KIND: EC50

smiles_str=Cc1nc2cc(F)c(N(C)C(=O)c3cccc(-n4nc(C(F)(F)F)c(Cl)c4COc4ccc(C(=O)O)cc4)c3)cc2o1 meas_value="< 1000 nM"
smiles_str=Cc1nn(-c2cc(C(=O)N(C)c3ccc4c(c3)OCO4)ccn2)c(C(F)(F)F)c1Cl meas_value="> 2000 nM"
smiles_str=O=C(O)c1ccc(OCc2c(Cl)c(C(F)(F)F)nn2-c2cccc(C(=O)Nc3ccc4c(c3)OC(F)(F)O4)c2)cc1 meas_value="> 2000 nM"
smiles_str=Cc1nc2ccc(N(C)C(=O)c3cccc(-n4nc(C(F)(F)F)c(Cl)c4C)c3)cc2s1 meas_value="1000 to 2000 nM"
smiles_str=COc1ccccc1-c1cc(C(F)(F)F)nn1-c1cccc(C(=O)N(C)c2ccc3c(c2)OCO3)c1 meas_value="< 1000 nM"
smiles_str=Cc1nn(-c2cccc(C(=O)N(C)c3ccc4c(c3)OCO4)n2)c(C)c1Cl meas_value="> 2000 nM"
smiles_str=Cc1nn(-c2cccc(C(=O)N(C)c3ccc4c(c3)CCO4)c2)c(C)c1Cl meas_value="< 1000 nM"
smiles_str=COc1nc2cc(N(C)C(=O)c3cccc(-n4nc(C)c(Cl)c4C)c3)ccc2o1 meas_value="> 2000 nM"
smiles_str=Cc1nc2cc(Cl)c(N(C)C(=O)c3cccc(-n4nc(C)c(Cl)c4C)c3)cc2o1 meas_value="< 1000 nM"
smiles_str=CCN(C(=O)c1cccc(-n2nc(C)c(Cl)c2C)c1)c1ccc2c(c1)OC(F)(F)O2 meas_value="1000 to 2000 nM"
smiles_str=Cc1c(Cl)c(CO)nn1-c1cccc(C(=O)N(C)c2ccc3c(c2)OCO3)c1 meas_value="> 2000 nM"
smiles_str=CN(C(=O)c1cccc(-n2nc(C(F)(F)F)c(Cl)c2OC2CCN(C(=O)OC(C)(C)C)CC2)c1)c1ccc2c(c1)OCO2 meas_value="< 1000 nM"
smiles_str=Cc1c(Cl)c(C(F)(F)F)nn1-c1cccc(C(=O)N(C)c2cc3c(cc2C(=O)O)OCO3)c1 meas_value="> 2000 nM"
smiles_str=[2H]C([2H])([2H])N(C(=O)c1cccc(-n2nc(C(F)(F)F)c(Cl)c2C2CC2)c1)c1ccc2nc(C)oc2c1 meas_value="< 1000 nM"
smiles_str=Cc1c(Cl)c(C(F)(F)F)nn1-c1cccc(C(=O)Nc2ccc3c(c2C=O)OCO3)c1 meas_value="> 2000 nM"
smiles_str=Cc1c(Br)c(C(F)(F)F)nn1-c1cccc(C(=O)N(C)c2ccc3c(c2)OCO3)c1 meas_value="< 1000 nM"
smiles_str=Cc1c(Cl)c(C(F)(F)F)nn1-c1cccc(C(=O)N(C)c2cc3c(cc2CO)OCO3)c1 meas_value="1000 to 2000 nM"
smiles_str=COc1ccccc1-c1c(Cl)c(C(F)(F)F)nn1-c1cccc(C(=O)N(C)c2ccc3c(c2)OCO3)c1 meas_value="< 1000 nM"
smiles_str=Cc1nc2ccc(N(C)C(=O)c3cccc(-n4nc(C(F)(F)F)cc4OCc4ccc(C(=O)O)cc4)c3)cc2o1 meas_value="< 1000 nM"
smiles_str=Cc1cc(C2CC2)n(-c2cccc(C(=O)N(C)c3ccc4c(c3)OCO4)c2)n1 meas_value="< 1000 nM"
smiles_str=Cc1cn2cc(N(C)C(=O)c3cccc(-n4nc(C(F)(F)F)c(Cl)c4COc4ccc(C(=O)O)cc4)c3)ccc2n1 meas_value="< 1000 nM"
smiles_str=COc1ccc(N(C)C(=O)c2cccc(-n3nc(C)c(Cl)c3C)c2)cc1OC meas_value="> 2000 nM"
smiles_str=CN(C(=O)c1cccc(-n2nc(C(F)(F)F)c(C#N)c2COc2ccc(C(=O)OC(C)(C)C)cc2)c1)c1ccc2c(c1)OC(F)(F)O2 meas_value="< 1000 nM"
smiles_str=Cc1cc2ncc(N(C)C(=O)c3cccc(-n4nc(C(F)(F)F)c(Cl)c4COc4ccc(C(=O)O)cc4)c3)cn2n1 meas_value="1000 to 2000 nM"
smiles_str=CN(C(=O)c1cccc(-n2nc(C(F)(F)F)cc2OCc2ccc(C(=O)OC(C)(C)C)cc2)c1)c1ccc2c(c1)OC(F)(F)O2 meas_value="< 1000 nM"
smiles_str=CN(C(=O)c1cccc(-n2nc(C(F)(F)F)c(C#N)c2Oc2ccc(C(=O)O)cc2)c1)c1ccc2c(c1)OCO2 meas_value="> 2000 nM"
smiles_str=Cc1nn(-c2cc(C(=O)N(C)c3ccc4c(c3)OCO4)ccc2C(F)(F)F)c(C)c1Cl meas_value="> 2000 nM"
smiles_str=Cc1cc2c(cc1NC(=O)c1cccc(-n3nc(C)c(Cl)c3C)c1)OCO2 meas_value="> 2000 nM"
smiles_str=Cc1cc(C(=O)O)n(-c2cccc(C(=O)N(C)c3ccc4c(c3)OCO4)c2)n1 meas_value="> 2000 nM"
smiles_str=Cc1c(Cl)c(C(=O)O)nn1-c1cccc(C(=O)N(C)c2ccc3c(c2)OCO3)c1 meas_value="> 2000 nM"

* * *

pEC50 values, listed per item
- STUDY SYSTEM: mutant CFTR (Homo sapiens, UniProt P13569, DEL508-508)
- TEST NAME: Fluorescence (HS-YFP) assay for CFTR activity, corrector assay
- TEST CONTEXT: CFBE41o- and FRT cells with stable expression of mutant CFTR, 24 h compound treatment
pEC50: −log10 of the molar value.
MEASUREMENT KIND: pEC50

compound="Cc1nn(-c2cccc(C(=O)N(C)c3ccc4c(c3)OCO4)c2)c(C)c1Cl [compound 015]" meas_value="> 6.00"
compound="Cc1nn(-c2cccc(C(=O)Nc3ccc4c(c3)OC(F)(F)C(F)(F)O4)c2)c(C)c1Cl [Int-005]" meas_value="< 5.70"
compound="[2H]C([2H])([2H])N(C(=O)c1cccc(-n2nc(C)c(Cl)c2C)c1)c1ccc2c(c1)OC(F)(F)O2 [compound 039]" meas_value="5.70 to 6.00"
compound="Cc1nc2ccc(NC(=O)c3cccc(-n4nc(C(F)(F)F)c(Cl)c4C)c3)cc2o1 [compound 120]" meas_value="5.70 to 6.00"
compound="CCc1nn(-c2cccc(C(=O)N(C)c3ccc4c(c3)OCO4)c2)c(CC)c1Cl [compound 092]" meas_value="> 6.00"
compound="Cc1nn(-c2cccc(C(=O)N(C)c3ccc4c(c3)OC(F)(F)O4)c2)c(C)c1Cl [compound 009]" meas_value="5.70 to 6.00"
compound="Cc1nc2cc(F)c(N(C)C(=O)c3cccc(-n4nc(C(F)(F)F)cc4OCc4ccc(C(=O)OC(C)(C)C)cc4)c3)cc2o1 [compound 189]" meas_value="> 6.00"
compound="Cc1ccc(C(=O)N(C)c2ccc3c(c2)OCO3)cc1-n1nc(C)c(Cl)c1C [compound 082]" meas_value="5.70 to 6.00"
compound="Cc1nn(-c2cccc(C(=O)N(C)c3ccc4c(c3)OC(C)(C)O4)c2)c(C)c1Cl [compound 034]" meas_value="< 5.70"
compound="Cc1nn(-c2cccc(C(=O)N(C)c3ccc4c(c3)OCO4)c2)c(C)c1C#N [compound 081]" meas_value="< 5.70"
compound="Cc1nc2cc(N(C)C(=O)c3cccc(-n4nc(C)c(Cl)c4C)c3)ccc2o1 [compound 025]" meas_value="< 5.70"
compound="CC(C)Cc1c(Cl)c(C(F)(F)F)nn1-c1cccc(C(=O)N(C)c2cc3c(cc2Cl)OCO3)c1 [compound 110]" meas_value="> 6.00"
compound="CC(=O)c1c(Cl)c(C)nn1-c1cccc(C(=O)N(C)c2ccc3c(c2)OCO3)c1 [compound 116]" meas_value="> 6.00"
compound="Cc1nc2cc(F)c(N(C)C(=O)c3cccc(-n4nc(C(F)(F)F)c(Cl)c4OCc4ccc(C(=O)OC(C)(C)C)cc4)c3)cc2o1 [compound 202]" meas_value="> 6.00"
compound="Cc1c(Cl)c(C(F)(F)F)nn1-c1cccc(C(=O)Nc2ccc3c(c2)OCO3)c1 [compound 128]" meas_value="< 5.70"
compound="CN(C(=O)c1cccc(-n2nc(C(F)(F)F)cc2-c2ccco2)c1)c1ccc2c(c1)OCO2 [compound 147]" meas_value="> 6.00"

* * *

- STUDY SYSTEM: F508del-CFTR (Homo sapiens, UniProt P13569, DEL508-508)
- Sequence (P13569 with tags, fused parts or gaps DEL508-508): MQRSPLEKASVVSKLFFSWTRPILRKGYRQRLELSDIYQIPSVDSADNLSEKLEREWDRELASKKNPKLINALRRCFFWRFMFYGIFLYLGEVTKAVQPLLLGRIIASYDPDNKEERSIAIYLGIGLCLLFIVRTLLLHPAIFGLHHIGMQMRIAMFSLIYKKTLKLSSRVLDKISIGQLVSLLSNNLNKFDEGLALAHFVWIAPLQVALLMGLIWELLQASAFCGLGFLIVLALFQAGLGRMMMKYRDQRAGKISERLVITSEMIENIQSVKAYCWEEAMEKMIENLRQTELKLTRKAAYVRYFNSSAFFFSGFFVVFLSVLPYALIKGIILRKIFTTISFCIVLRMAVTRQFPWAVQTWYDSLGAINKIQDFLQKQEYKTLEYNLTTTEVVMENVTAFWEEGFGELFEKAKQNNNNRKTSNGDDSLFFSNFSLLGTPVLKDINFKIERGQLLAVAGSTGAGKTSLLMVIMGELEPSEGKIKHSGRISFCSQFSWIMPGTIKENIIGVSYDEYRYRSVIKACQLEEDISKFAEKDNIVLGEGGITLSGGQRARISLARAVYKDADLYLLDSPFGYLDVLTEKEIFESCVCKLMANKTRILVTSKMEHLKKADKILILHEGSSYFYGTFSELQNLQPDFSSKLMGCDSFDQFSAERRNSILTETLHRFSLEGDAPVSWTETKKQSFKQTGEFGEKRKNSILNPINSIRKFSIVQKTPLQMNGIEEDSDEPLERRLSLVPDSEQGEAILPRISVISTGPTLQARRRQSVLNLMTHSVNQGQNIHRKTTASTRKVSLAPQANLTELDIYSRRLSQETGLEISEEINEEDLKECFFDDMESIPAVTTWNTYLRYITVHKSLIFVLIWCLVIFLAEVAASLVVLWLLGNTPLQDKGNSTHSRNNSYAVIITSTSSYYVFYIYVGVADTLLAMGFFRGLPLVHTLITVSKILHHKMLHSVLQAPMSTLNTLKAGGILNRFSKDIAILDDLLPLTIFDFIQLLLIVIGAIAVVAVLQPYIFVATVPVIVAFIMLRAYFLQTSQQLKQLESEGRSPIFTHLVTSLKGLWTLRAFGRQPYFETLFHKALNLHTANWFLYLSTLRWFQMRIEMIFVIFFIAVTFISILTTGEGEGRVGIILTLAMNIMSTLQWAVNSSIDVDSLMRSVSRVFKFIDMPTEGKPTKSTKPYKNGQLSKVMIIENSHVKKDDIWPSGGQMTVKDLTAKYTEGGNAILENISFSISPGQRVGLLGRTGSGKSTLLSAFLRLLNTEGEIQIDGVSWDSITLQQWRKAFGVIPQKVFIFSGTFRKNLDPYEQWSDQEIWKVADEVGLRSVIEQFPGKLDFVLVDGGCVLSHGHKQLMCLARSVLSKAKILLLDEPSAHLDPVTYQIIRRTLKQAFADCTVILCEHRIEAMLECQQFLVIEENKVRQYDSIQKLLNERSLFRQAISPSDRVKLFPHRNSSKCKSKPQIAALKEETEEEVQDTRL
- TEST NAME: Short-circuit current recordings on human bronchial epithelial cells (F508del/F508del)
- Type: cell-based
- Design: Human bronchial epithelial (HBE) cells obtained from CF patients (F508del/F508del genotype); endogenous in cells; host or cells: primary human bronchial epithelial cells from CF patients, F508del/F508del
- TEST CONTEXT: HBE cells from CF patients (F508del/F508del), 24 hrs treatment; table 3
MEASUREMENT KIND: activity on HBE cells (ΔICFTR)

smiles_str=Cc1c(Cl)c(C(F)(F)F)nn1-c1cccc(C(=O)N(C)c2ccc3c(c2)OCO3)c1 measurement_kind="activity on HBE cells (ΔICFTR)" meas_value="+++ (ΔICFTR>3.0 μA)"
smiles_str=CCOC(=O)c1c(Cl)c(C)nn1-c1cccc(C(=O)N(C)c2ccc3c(c2)OCO3)c1 measurement_kind="activity on HBE cells (ΔICFTR)" meas_value="+ (ΔICFTR<2.0 μA)"
smiles_str=CC(C)Cc1cc(C(F)(F)F)nn1-c1cccc(C(=O)N(C)c2ccc3c(c2)OCO3)c1 measurement_kind="activity on HBE cells (ΔICFTR)" meas_value="+ (ΔICFTR<2.0 μA)"
smiles_str=CCOC(=O)c1ccc(OCc2c(Cl)c(C)nn2-c2cccc(C(=O)N(C)c3ccc4c(c3)OCO4)c2)cc1 measurement_kind="activity on HBE cells (ΔICFTR)" meas_value="+++ (ΔICFTR>3.0 μA)"
smiles_str=CN(C(=O)c1cccc(-n2nc(C(F)(F)F)cc2-c2ccccc2)c1)c1ccc2c(c1)OCO2 measurement_kind="activity on HBE cells (ΔICFTR)" meas_value="+ (ΔICFTR<2.0 μA)"

Source of measurements: patent US12492193B2
